# System: Myc proto-oncogene protein (Homo sapiens) (UniProt P01106)
# Sequence (P01106 whole entry, looked up): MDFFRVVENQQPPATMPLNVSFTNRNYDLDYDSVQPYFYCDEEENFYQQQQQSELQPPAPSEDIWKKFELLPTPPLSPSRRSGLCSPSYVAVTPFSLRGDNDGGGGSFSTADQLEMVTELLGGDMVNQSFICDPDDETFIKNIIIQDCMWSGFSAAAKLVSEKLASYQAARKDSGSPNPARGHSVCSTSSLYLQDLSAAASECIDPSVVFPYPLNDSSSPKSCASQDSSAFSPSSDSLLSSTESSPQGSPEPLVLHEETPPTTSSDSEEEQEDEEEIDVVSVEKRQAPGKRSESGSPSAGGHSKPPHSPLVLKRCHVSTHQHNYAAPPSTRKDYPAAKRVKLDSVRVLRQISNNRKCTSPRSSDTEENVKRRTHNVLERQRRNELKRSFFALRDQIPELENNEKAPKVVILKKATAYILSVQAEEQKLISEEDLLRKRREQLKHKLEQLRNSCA
# Assay text: ATG_Myc_CIS: Attagene CIS-FACTORIAL HepG2 Assay for human Myelocytomatosis (Myc) Proto-Oncogene Transcription Factor (AID 2282990)
# Particulars: HepG2, Attagene cis-reporter transcription factor activity; actives raise or lower the signal
Active and inactive are the calls of the source. How the source made its calls: active means hit-call score of the fitted dose curve at least 0.9, where 1 is the maximum; inactive means score below 0.9.
Readout name: AC50

Worked cases, AC50 given:
compound=COc1cccc(C(=O)NN(C(=O)c2cc(C)cc(C)c2)C(C)(C)C)c1C result=inactive
compound=CCCCSP(=O)(SCCCC)SCCCC result="83.2 µM (active)"
compound=Nc1nc(N)nc(NC2CC2)n1 result=inactive
compound=CCCCN(CC)c1c([N+](=O)[O-])cc(C(F)(F)F)cc1[N+](=O)[O-] result=inactive
compound="CC(Oc1cccc(Cl)c1)C(=O)O (stereo not drawn)" result=inactive

Hey, can you go through the list below and give me AC50 for every item?
1. CCOP(=O)(SC(C)CC)N1CCSC1=O (stereo not drawn)
2. N#CSCSC#N
3. C#CCC1=C(C)C(OC(=O)C2C(C=C(C)C)C2(C)C)CC1=O (stereo not drawn)

1. inactive
2. inactive
3. 68.1 µM (active)

These measurements were taken from PubChem BioAssay (EPA / NIEHS).
